compounds and their reported IC50
molecular target: dopamine transporter (DAT) (Rattus norvegicus); test: Dopamine reuptake ([^3H]dopamine uptake) inhibition in rat brain synaptosomes; details: DA Uptake EC50 (nM ± SD), rat caudate synaptosomes; 5 nM [^3H]dopamine; 15 min, 25° C.; three experiments pooled
Could you write the number and then its unit?

Illustrative cases are given below, each with its answer.
CC(C)C(CNc1nc(-c2ccc3nccn3c2)nc2ccccc12)c1ccccc1 (stereo not shown)    24 nM
Cc1cc2nccn2cc1-c1nc(NCC(c2ccccc2)C2CC2)c2ccccc2n1 (stereo not shown)    3 nM
Cc1cc2nccn2cc1-c1nc(NCC(c2ccccc2)N(C)C)c2ccccc2n1 (stereo not shown)    14 nM

Now for the compound whose IC50 we want.
-- ask What value of measured IC50 is listed for Nc1ncc(-c2nc(NCC(c3ccccc3)C3CCCCC3)c3ccccc3n2)cn1 (stereo not shown) ?
-- reply 79 nM

---

molecular target: norepinephrine transporter (NET) (Rattus norvegicus); assay: Norepinephrine reuptake ([^3H]norepinephrine uptake) inhibition in rat brain synaptosomes; details: read-out: NET Uptake IC50; mean ± S.D., n = 3
Overview of recorded pIC50 for various compounds
Worth noting: pIC50 values are minus log10 of concentrations stated in mol/L.

-- ask # lookup: pIC50 of Cc1cc2nccn2cc1-c1nc(NCC(O)(c2ccccc2)c2ccccc2)c2ccccc2n1
-- reply 7.80

-- ask For the compound shown here, CNc1ncc(-c2nc(NCC(c3ccccc3)c3ccccc3)c3ccccc3n2)cn1 , give the reported pIC50.
-- reply 6.75

-- ask What value of pIC50 has been recorded for this entry: OC(CNc1nc(-c2ccc3[nH]ccc3c2)nc2ccccc12)(c1ccccc1)c1ccccc1
-- reply 6.69

-- ask Any idea what pIC50 was measured for c1ccc(C(CNc2nc(-c3ccc4nccn4c3)nc3ccccc23)c2ccc[nH]2)cc1 (stereo not shown) ?
-- reply 7.06

---

biological target: dopamine transporter (DAT) (Rattus norvegicus, UniProt P23977); assay: Dopamine reuptake ([^3H]dopamine uptake) inhibition in rat brain synaptosomes; settings: read-out: DAT Uptake Emax
Sequence (P23977 whole entry): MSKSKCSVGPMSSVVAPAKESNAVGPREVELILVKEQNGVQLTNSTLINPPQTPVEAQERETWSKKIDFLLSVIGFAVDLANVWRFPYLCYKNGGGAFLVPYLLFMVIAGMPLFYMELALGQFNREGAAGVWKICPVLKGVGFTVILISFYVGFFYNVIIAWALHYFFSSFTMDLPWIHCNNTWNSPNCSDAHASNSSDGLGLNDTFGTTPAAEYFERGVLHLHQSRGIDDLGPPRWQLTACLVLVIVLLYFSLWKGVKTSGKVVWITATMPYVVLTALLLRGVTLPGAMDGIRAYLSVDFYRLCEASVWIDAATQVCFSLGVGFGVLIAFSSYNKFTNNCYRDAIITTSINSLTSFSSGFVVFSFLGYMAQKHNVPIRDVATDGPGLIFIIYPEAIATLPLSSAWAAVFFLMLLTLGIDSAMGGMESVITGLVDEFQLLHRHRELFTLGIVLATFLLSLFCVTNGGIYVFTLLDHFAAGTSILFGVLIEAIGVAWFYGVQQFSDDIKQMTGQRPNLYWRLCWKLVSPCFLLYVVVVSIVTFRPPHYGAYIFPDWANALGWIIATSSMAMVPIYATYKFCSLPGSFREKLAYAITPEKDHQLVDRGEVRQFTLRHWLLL
experimental_readout: Emax (%)
State the answer as a number, implicitly in %.

Use the examples below as a reference point.
c1ccc(C(CNc2nc(-c3ccc4nccn4c3)nc3ccccc23)c2ccccc2)cc1    68
Cl.Fc1ccc2c(NCC(c3ccccc3)c3ccccc3)nc(-c3ccc4nccn4c3)nc2c1 [compound 124, Hydrochloride]    69
c1ccc(C(CNc2nc(-c3cnc4nccn4c3)nc3ccccc23)C2CCCCC2)cc1 (stereo not drawn)    70
Cc1cc2nccn2cc1-c1nc(NCC(c2ccccc2)c2ccncc2)c2ccccc2n1 (stereo not drawn)    72
c1ccc(C(CNc2nc(-c3cnc4nccn4c3)nc3ccccc23)c2ccccn2)cc1 (stereo not drawn)    71
CSc1ncc(-c2nc(NCC(c3ccccc3)c3ccccc3)c3ccccc3n2)cn1    71
OC(CNc1nc(-c2ccc3[nH]ccc3c2)nc2ccccc12)(c1ccccc1)c1ccccc1    70
CNc1ncc(-c2nc(NCC(c3ccccc3)c3ccccc3)c3ccccc3n2)cn1    71

-- ask What does the data say about its Emax? Entry: c1ccc(C(CNc2nc(-c3cnc4nccn4c3)nc3ccccc23)c2ccccc2)cc1
-- reply 68

---

experimental_readout: melting point

Observe how each entry below is paired with its result.
Cn1ccc2cc(-c3nc(NCC(c4ccccc4)c4cccnc4)c4ccccc4n3)ccc21 (stereo not shown)    91 to 93 °C
c1ccc(C(CNc2nc(-c3ccc4cnccc4c3)nc3ccccc23)c2ccccc2)cc1    242 to 244 °C
Cc1cc2nccn2cc1-c1nc(NCC(O)c2ccccc2)c2ccccc2n1 (stereo not shown)    221 to 224 °C
Cc1cc2nccn2cc1-c1nc(NCC(C)(c2ccccc2)c2ccccc2)c2ccccc2n1    275 to 277 °C
c1ccc(C(c2ccccc2)N2CC(Nc3nc(-c4ccc5nccn5c4)nc4ccccc34)C2)cc1    67 to 69 °C
CCC(CNc1nc(-c2cn3ccnc3cc2C)nc2ccccc12)c1ccccc1 (stereo not shown)    232 to 234 °C

With those in mind, consider the next compound.
-- ask So what's the measured melting point for this one? c1ccc(C(CNc2nc(-c3cncnc3)nc3ccccc23)c2ccccc2)cc1
-- reply 213 to 215 °C
